src = patent EP0908457B1

# Test system: Cyperus serotinus, Rottb.
# test.summary: Preemergence weed control under flooded paddy conditions, CYPSE (Flatsedge)
# Type: in vivo
# assay.context: 0.0620 kg/ha, preemergence weeds, herbicidal effect rating 0-9, three to four weeks after treatment
observed.property: CYPSE
Give the figure by itself; no unit, no explanation.

COc1ccc(C)cc1-c1nsc2cc(Cl)c(-n3c(=O)cc(C(F)(F)F)n(C)c3=O)cc12    0.0
COCCOC(=O)c1nsc2ccc(-n3c(=O)cc(C(F)(F)F)n(C)c3=O)cc12    2.0
Cn1c(C(F)(F)F)cc(=O)n(-c2ccc3snc(C(=O)Nc4nc(C(F)(F)F)c(Cl)s4)c3c2)c1=O    0.0
CC(OS(=O)(=O)c1ccccc1)c1nsc2ccc(-n3c(=O)cc(C(F)(F)F)n(C)c3=O)cc12 (stereo not drawn)    0.0
COc1ccc(I)cc1-c1nsc2ccc(-n3c(=O)cc(C(F)(F)F)n(C)c3=O)cc12    4.5

Proceed to the following item.
Lookup: Quick one: CYPSE of CCOC(=O)c1nsc2cc(F)c(-n3c(=O)cc(C(F)(F)F)n(C)c3=O)cc12 ?
Found: 9.0
